assayed_system: human glucagon receptor (human) (UniProt P47871)
Sequence (P47871 26-477): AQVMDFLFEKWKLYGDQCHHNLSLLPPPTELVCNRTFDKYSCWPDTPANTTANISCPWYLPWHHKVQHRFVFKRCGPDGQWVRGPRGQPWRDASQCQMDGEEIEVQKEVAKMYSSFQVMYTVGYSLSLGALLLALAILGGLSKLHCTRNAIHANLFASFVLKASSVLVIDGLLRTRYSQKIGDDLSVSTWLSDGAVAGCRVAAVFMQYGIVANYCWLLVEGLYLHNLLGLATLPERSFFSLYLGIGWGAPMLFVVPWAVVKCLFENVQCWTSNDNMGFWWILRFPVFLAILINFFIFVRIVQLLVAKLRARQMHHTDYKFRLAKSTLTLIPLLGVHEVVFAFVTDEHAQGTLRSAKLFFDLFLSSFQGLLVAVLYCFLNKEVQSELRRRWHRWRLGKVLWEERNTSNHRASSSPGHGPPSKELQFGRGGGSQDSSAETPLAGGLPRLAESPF
test_name: cell-based or functional assay
Non-standard residues stand in square brackets, D forms with d. No end group written: not given here. αMePhe(2-F) = C[C@](N)(Cc1ccccc1F)C(=O)O; Orn = NCCC[C@H](N)C(=O)O; Aib = CC(C)(N)C(=O)O
readout_name: cAMP Rel EC50 (1% HSA) (nM)

[[record]]
binder = "Y[Aib]QGT[αMePhe(2-F)]TSDYSILLDKAAQK[Orn]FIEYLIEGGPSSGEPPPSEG-NH2 (not fully specified (residue 20)) [Example 306]"
observed_result = 2820

[[record]]
binder = "YXQATXTSDXXIXLDXKAQXEFIEXLIEGGPSSGAPPPSGS (synthetic construct; SITE 2: note = 2-Aminoisobutyric Acid; SITE 4: note = D-amino acid; SITE 6: note = alpha-methyl-2-fluoro-L-phenylalanine; SITE 10: note = 3-(4-Pyridyl)-L-alanine; SITE 11: note = alpha-methyl-L-serine; SITE 13: note = alpha-methyl-leucine; SITE 16: note = L-ornithine; SITE 17: n) [Example 1203]"
observed_result = 436

[[record]]
binder = "YXQGTXTSDXXIXLDXKAQXXFIEXLAEGGPSSGEPPPSGTGE (synthetic construct; SITE 2: note = 2-Aminoisobutyric Acid; SITE 6: note = alpha-methyl-2-fluoro-L-phenylalanine; SITE 10: note = 3-(4-Pyridyl)-L-alanine; SITE 11: note = alpha-methyl-L-serine; SITE 13: note = alpha-methyl-leucine; SITE 16: note = L-ornithine; SITE 17: note = Lysine is chemically mo) [Example 545]"
observed_result = 180

